We begin with a simple list: items and their reported protein stability index.
B1: INTS4 (parent)
chain: TIIEPAGESDNPLRFTSGLVVALD

# Variants of: B1
# protocol_description: protein stability index of a GFP-peptide fusion (GPS, HEK-293T) (PSI 1-6); higher = more stable;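 further: lentivirally expressed fusions sorted by FACS into six bins by GFP to DsRed ratio, PSI derived from sequencing read proportions per bin multiplied by bin number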
# experimental_parameters: c terminus: a fixed tail appended
# print the numeric value only

INSERT INTO assay_data (changes, quantitative_result) VALUES
  ('I3L', 2.76),
  ('R14N', 3.95),
  ('P5T', 2.77),
  ('L23C', 3.62),
  ('E4V', 1.98),
  ('S9K', 2.87),
  ('P5E', 3.31),
  ('G7S', 2.9);

Inquiry: Fill in the blank: the reported protein stability index of "I3R" is ____.
Reply text: 3.06

Inquiry: Entry to check: "E4C"
Reply text: 2.05

Inquiry: "L23Q" ?
Reply text: 4.56

Inquiry: What do you have for "F15Y" ?
Reply text: 2.87

Inquiry: Param item: "E8F"
Reply text: 2.19

Inquiry: And "V20H" ?
Reply text: 3.28

Inquiry: Param item: "E4Q"
Reply text: 2.84

Inquiry: And "A22G" ?
Reply text: 2.85

Inquiry: What do you have for "E4W" ?
Reply text: 1.56

Inquiry: And the next one, "L19V" ?
Reply text: 3.33

Inquiry: Now give it for "A6G" too.
Reply text: 2.94

Inquiry: Entry to check: "L13K"
Reply text: 3.64

Inquiry: "I3N" ?
Reply text: 3.51

Inquiry: Another variant to check: "I2R"
Reply text: 3.67

Inquiry: What about this variant? "D24Y"
Reply text: 2.31

Values were extracted from the supplement of paper PMC10567573.
